ENDPOINT_LABEL: melting point

Task: Data request, read-out melting point, for Cc1cc(O)cc2oc(=O)ccc12
Output: 256 °C

Task: And the next one, COC(=O)c1cccc(-c2c(C)cc(OC3CCS(=O)(=O)CC3)cc2C)c1 ?
Output: 180 °C

====

The following compounds are shown together with reported melting point values.

Worked examples follow.
compound=CC(C)C(=O)N[C@@H](CS)C(=O)NCCSC(=O)c1ccccc1 reported="127 to 130 °C"
compound=CC1(C)CC(=O)Nc2c(CCCN3CCN(c4nsc5ccccc45)CC3)cccc21 reported="166 °C"
compound=O=C(Nc1ccc(-n2nc(C(F)(F)F)cc2C2CC2)c(F)c1)c1ccncc1F reported="161 to 165 °C"
compound=CN(C)CCNC(=O)c1cccc(-c2ccc3c(c2)N(Cc2ccc(Cl)cc2Cl)CC3)c1 reported="122 to 123 °C"
compound=Cn1nnnc1SCc1ccccn1 reported="78 to 81 °C"
compound=O=C(CC1(c2cccc(C(F)(F)F)c2F)CC1)C(=O)Nc1ccc2c(c1)COC2=O reported="165 to 166 °C"
compound=CS(=O)(=O)c1cc([N+](=O)[O-])cc(O)c1O reported="221 to 224 °C"
compound=O=c1c(Cl)c(S(=O)(=O)Cc2ccccc2)cnn1-c1ccccc1 reported="154 to 156 °C"
compound=CCCN1CCC(C(=O)O)=Cc2cc(Br)ccc21 reported="172 to 173 °C"
compound="CCOC(=O)c1c(C)nc2c(cnn2CCC(C)CC)c1N (stereo unspecified)" reported="217 to 222 °C"

Task: Data request, read-out melting point, for NC(=O)c1ccc(C(F)(F)F)nc1N
Output: 227 to 229 °C

Task: And the next one, NS(=O)(=O)c1cc(CO)cc(NCc2ccccc2)c1S(=O)c1ccccc1 (stereo unspecified) ?
Output: 213 to 214 °C

Task: And the next one, Cc1ccc(-n2c(-c3ccc(Br)cc3)ccc2-c2ccc(Br)cc2)cc1 ?
Output: 262 to 264 °C

Task: And the next one, C/C(=C(\C#N)C(N)=S)N1CCCN(c2cccc([N+](=O)[O-])c2)CC1 ?
Output: 157 to 158 °C

Task: And the next one, CC(=O)CC(C)(C)Cn1cnc2c(N)nc3ccccc3c21 ?
Output: 214 to 216 °C

Task: And the next one, CCC(C)Nc1nc2ncnn2c2c1cnc1c2cnn1CC (stereo unspecified) ?
Output: 228 to 230 °C

====

ENDPOINT_LABEL: melting point

Worked examples follow.
molecule=COc1ccc2c(c1)C(=O)c1cccc(OC)c1-2 reported="125 to 127 °C"
molecule="CC(c1ccncc1)C(O)(Cn1cncn1)c1ccc(F)cc1F (stereo not drawn)" reported="161 to 163 °C"

Next, consider the following molecule.
Task: Data request, read-out melting point, for CCC(C)N(C(=O)c1ccccc1C(N)=O)c1ccc(Cn2nnn(-c3ccc(C(F)(F)F)cc3)c2=O)cc1C (stereo not drawn)
Output: 217 to 218 °C

====

The following molecules are shown together with reported melting point values.

molecule=CN1C(=O)CC[C@]2(C)c3ccc(-c4cccc(C(F)(F)F)c4)cc3CC[C@@H]12 reported="64 to 87 °C"
molecule="COc1cc2c(cc1OC)C(O)C(N1CCC(N3c4ccccc4NC3C)CC1)C2 (stereo not drawn)" reported="255 to 256 °C"

Task: Data request, read-out melting point, for O=C(c1ccccc1)C1(c2ccccc2)COCO1 (stereo not drawn)
Output: 66 to 66.5 °C

====

ENDPOINT_LABEL: melting point

Task: Data request, read-out melting point, for CCCCNC(=O)NC(=O)c1cc([N+](=O)[O-])cnc1C
Output: 111 to 112 °C

Task: And the next one, NC(=O)NC1CCCCCC1 ?
Output: 203 to 204 °C

Task: And the next one, FC(F)(F)c1cc(N2CCN(Cc3ccc4ccccc4n3)CC2)ccc1Cl ?
Output: 61 to 64 °C

Task: And the next one, CN(C)Cc1cccc(C(F)(F)C(F)(F)c2ccccc2)c1CN ?
Output: 71 to 83 °C

Task: And the next one, CC(=O)Nc1nc(OS(=O)(=O)c2ccccc2)ncc1F ?
Output: 142 to 143 °C

Task: And the next one, COCC(=O)C1CCC2C3CCC4CC(O)CCC4(C)C3CCC12C (configuration not stated) ?
Output: 163 to 164 °C

Task: And the next one, COC(=O)c1ncc(C(=O)NS(=O)(=O)c2ccccc2)cc1OC ?
Output: 160 to 163 °C

Task: And the next one, CNC(=O)[C@@H](O)[C@H](Sc1cc(C)ccc1N)c1ccc(C)cc1 ?
Output: 168 to 170 °C

Task: And the next one, Cc1c2c(nc3ccccc13)CCN(C(=O)C(C)C)CC2 ?
Output: 107 °C

Task: And the next one, CNC(=O)c1cc2ccc3c(c2c(-c2ccc(OC(F)(F)F)cc2)c1CO)OCO3 ?
Output: 195 to 197 °C

Task: And the next one, O=C1NC(=O)c2c1c(-c1ccccc1Cl)cc1oc3ccc(O)cc3c21 ?
Output: 140 to 145 °C

Task: And the next one, CCOc1cc(-c2nc(N)sc2CCC2CCCCC2)c(OC)cc1C ?
Output: 96 to 97 °C

====

ENDPOINT_LABEL: melting point

compound=CCOC(=O)c1c[nH]c2nc(SCC)c(F)cc2c1=O reported="280 to 284 °C"
compound=NC(=O)c1ccc(F)c2c1C=CCO2 reported="189 to 190 °C"
compound="OC(c1cccc(-c2cc3ccccc3[nH]2)c1)c1cc2ccccc2[nH]1 (stereo unspecified)" reported="82 to 85 °C"
compound="O=C(O)C1=Cc2cc(F)c(F)cc2NC1C(F)(F)F (stereo unspecified)" reported="187 to 189 °C"
compound="O=C(Nc1nccs1)C1C(=O)Sc2cc(Cl)ccc21 (stereo unspecified)" reported="276 to 289 °C"

Task: Data request, read-out melting point, for COc1ccc(N(C(=O)F)C(=O)Cl)cc1Cl
Output: 124 to 127 °C

Task: And the next one, CC1CCCC(C)N1Cc1ccc(COc2cccc3c2CN(C2CCC(=O)NC2=O)C3=O)cc1 (stereo unspecified) ?
Output: 205 to 207 °C

====

The following molecules are shown together with reported melting point values.

Worked examples follow.
molecule=CCN(CC)S(=O)(=O)c1ccccc1S(=O)(=O)N=C(Nc1nc(OC)nc(OC)n1)SC endpoint_label="melting point" reported="150 °C"
molecule="CC(=O)NCC1CN(c2ccc(N3CCC(n4cc(C5(C)CO5)nn4)CC3)c(F)c2)C(=O)O1 (stereo not given)" endpoint_label="melting point" reported="158 to 160 °C"
molecule=CC(=O)Oc1c(C(C)C)cc(C(=O)Nc2cnc3c(C)cc(C)cc3c2-c2ccccc2Cl)cc1C(C)C endpoint_label="melting point" reported="195 to 196 °C"
molecule=COc1ccc(Cl)cc1C(=O)NCCc1ccc(CC(C)(C)C(=O)O)cc1 endpoint_label="melting point" reported="138 to 141 °C"
molecule="O=C(O)CCCCOc1ccccc1C1(c2ccccc2)NC(=O)NC1=O (stereo not given)" endpoint_label="melting point" reported="231 to 232 °C"
molecule=COC(=O)c1c(C)nn(-c2ccccn2)c1S(N)(=O)=O endpoint_label="melting point" reported="196 to 198 °C"

Task: Data request, read-out melting point, for CCOC(=O)c1cccc(-c2coc3cc(O)c(O)cc3c2=O)c1
Output: 217 to 218 °C

Task: And the next one, CN1CCN(N(c2ccccc2)c2nc3c(-c4c(F)cccc4F)n[nH]c3s2)CC1 ?
Output: 208 to 210 °C

Task: And the next one, CCOC(=O)c1cn2c(=O)n(C)c3ccccc3n2c1=O ?
Output: 243 to 244 °C

====

The following compounds are shown together with reported melting point values.

compound=O=S(=O)(c1ccccc1)c1c[nH]c2cccc(CCO)c12 endpoint_label="melting point" reported="55 to 60 °C"
compound=N=C(N)N(C[C@H]1CC[C@H](C(=O)Nc2ccnc3[nH]ccc23)CC1)C(=O)OCc1ccccc1 endpoint_label="melting point" reported="160 to 162 °C"
compound=CCCCCCN(C(=O)Nc1ccc(C(=O)O)cc1)c1ccc2c(c1)C(C)(C)CCC2(C)C endpoint_label="melting point" reported="177 °C"
compound=Cc1nc(-n2ccc(N3CCNC3=O)cc2=O)sc1C(=O)NCc1ccccc1 endpoint_label="melting point" reported="> 300 °C"
compound=COc1ccc(Nc2ccc(O)cc2)c(C(C)=O)c1 endpoint_label="melting point" reported="118 to 119 °C"
compound="N#CC1(CCc2ccccc2)CCCCN1C(=O)c1ccccc1 (configuration not stated)" endpoint_label="melting point" reported="65 to 67 °C"

Next, consider the following compound.
Task: Data request, read-out melting point, for CC1=C(C(=O)OCCOc2ccccc2)C(c2cccc(Cl)c2C)C2=C(CNCC2=O)N1 (configuration not stated)
Output: 233 to 235 °C
